Test system: NA constricted rabbit aorta
Test: Relaxing effects on vascular smooth muscle constricted by noradrenaline (NA) in vitro
Conditions: Oryctolagus cuniculus; relaxation of rabbit aorta constricted by noradrenaline (10^−5 mol/L); mean±SEM, n=5
Measured attribute: EC50 (µM)
Hi! Could you send only the number? It should be in µM, unit omitted.

// worked examples, EC50 included
Molecule: FC(F)(F)c1cccc(C2CCN(CCCCn3nnc4ccccc43)CC2)c1 [II-110]
Measured attribute: EC50
Recorded measurement: 0.355

Molecule: Fc1ccc2c(C3CCN(CCCn4ncc5ccccc54)CC3)noc2c1 [II-103]
Measured attribute: EC50
Recorded measurement: 7.76

Molecule: N#Cc1ccc2cnn(CCCCN3CCC(c4noc5cc(F)ccc45)CC3)c2c1 [II-104]
Measured attribute: EC50
Recorded measurement: 9.55

Molecule: c1ccc2c(c1)nnn2OCCN1CCC(c2noc3ccccc23)CC1 [II-148]
Measured attribute: EC50
Recorded measurement: 91.2

response.value for COc1ccc2c(C3CCN(CCCCn4nnc5ccc(C#N)cc54)CC3)noc2c1 [II-97] (field: EC50) = 8.13

Reported EC50 of c1ccc2c(c1)ncn2CCCCN1CCC(c2ccncc2)CC1 [II-119] : 21.9

Form field EC50, entry COc1ccc2nnn(CCCN3CCC(c4noc5cc(F)ccc45)CC3)c2c1 [II-91] : 4.9

Entry Fc1cccc(C2CCN(CCCCn3cnc4ccccc43)CC2)c1 [II-111] ; EC50 = 21.4

response.value for FC(F)(F)c1cccc(C2CCN(CCCOn3nnc4ccccc43)CC2)c1 [II-116] (field: EC50) = 4.37

Documented EC50 of Fc1ccc2nnn(CCCCN3CCC(c4cccc(C(F)(F)F)c4)CC3)c2c1 [II-113] : 6.17

* * *

Assay: Experiment on acute toxicity
Conditions: both sexes, Kunming, mouse, in vivo, intraperitoneal; mice, intraabdominal injection
Measured attribute: LD50 (mg/kg)
Please reply with the bare figure in mg/kg and do not write the unit itself.

Lab book: LD50 of Fc1ccc2c(C3CCN(CCCn4nnc5ccccc54)CC3)noc2c1 [II-85] noted as 108

* * *

Measured pEC50 of individual entries
Tested on: NA constricted rabbit aorta
Assay: Relaxing effects on vascular smooth muscle constricted by noradrenaline (NA) in vitro
Details: Oryctolagus cuniculus; relaxation of rabbit aorta constricted by noradrenaline (10^−5 mol/L); mean±SEM, n=5
Protocol: Adrenaline hydrochloride (AD) (10^−5 mol/L) was added into a bath tube to induce constriction, when maximal constriction was achieved, the sample was completely flushed, K-H solution was changed for every 20 min. Contents in the tube was balanced for 60 min, when baseline recovered to be stable, noradrenaline bitartrate (NA) (10^−5 mol/L) was added to induce constriction. […]
Just so you know, pEC50 here is -log10 of the concentration in molar units; reply with that number alone.

Molecule: Fc1ccc2c(C3CCN(CCn4nnc5ccccc54)CC3)noc2c1 [II-94]
Tested target: NA constricted rabbit aorta
Recorded measurement: 5.81

Molecule: c1ccc2nc(C3CCN(CCCCn4nnc5ccccc54)CC3)cnc2c1 [II-123]
Tested target: NA constricted rabbit aorta
Recorded measurement: 4.53

Molecule: c1ccc2c(c1)nnn2CCCCN1CCC(C2CCCCC2)CC1 [II-121]
Tested target: NA constricted rabbit aorta
Recorded measurement: 4.44

Molecule: Cc1ccc2nnn(CCCN3CCC(c4noc5cc(F)ccc45)CC3)c2c1 [II-90]
Tested target: NA constricted rabbit aorta
Recorded measurement: 5.35

Molecule: O=Cc1ccc2nnn(CCCN3CCC(c4noc5cc(F)ccc45)CC3)c2c1 [II-92]
Tested target: NA constricted rabbit aorta
Recorded measurement: 5.73

Molecule: Fc1ccc2c(C3CCN(CCOn4nnc5ccccc54)CC3)noc2c1 [II-99]
Tested target: NA constricted rabbit aorta
Recorded measurement: 4.04

Molecule: N#Cc1ccc2nnn(CCCCN3CCC(c4noc5cc(F)ccc45)CC3)c2c1 [II-96]
Tested target: NA constricted rabbit aorta
Recorded measurement: 5.31

Molecule: FC(F)(F)c1cccc(C2CCN(CCCCn3cnc4ccccc43)CC2)c1 [II-109]
Tested target: NA constricted rabbit aorta
Recorded measurement: 6.32

Note to self: pEC50 of COc1ccc2nnn(CCCCN3CCC(c4cccc(C(F)(F)F)c4)CC3)c2c1 [II-114] with NA constricted rabbit aorta was 4.77

// pEC50 (NA constricted rabbit aorta) for c1cnc(C2CCN(CCCCn3cnc4ccccc43)CC2)nc1 [II-120] = 4.52

Record for COc1ccc2nnn(CCCN3CCC(c4noc5ccccc45)CC3)c2c1 [II-93] under target or system NA constricted rabbit aorta: pEC50 reported as 6.07

# c1ccc2c(c1)nnn2CCCN1CCC(c2noc3ccccc23)CC1 [II-84] with NA constricted rabbit aorta: pEC50 is 6.17

Assay NA constricted rabbit aorta, sample N#Cc1ccc2nnn(CCCCN3CCC(c4cccc(C(F)(F)F)c4)CC3)c2c1 [II-115] , pEC50 read: 4.53
